methodSummary: Potentiometric titration of peptides: protonation constants
Type: physicochemical
studyConditions: protonation constant, potentiometry, 1 mM peptide, 25 °C, I=0.1 (KNO3); error on last digit in parentheses
Where a SMILES comes first, the peptide text is derived from it. [ ]: non-standard residue; d: D form. βAla = NCCC(=O)O
valueType: log β H2L

Query: State the recorded log β H2L for this entry: NCCCC[C@H](NC(=O)[C@H](Cc1c[nH]cn1)NC(=O)CCNC(=O)[C@@H](N)CCCCN)C(=O)N[C@@H](CO)C(=O)N[C@@H](CO)C(N)=O [d] (H-K[βAla]HKSS-NH2)
Response: 20.563(2)

Query: I am curious: what log β H2L value has been reported for NC(=O)[C@H](CO)NC(=O)[C@H](CO)NC(=O)[C@H](Cc1c[nH]c2ccccc12)NC(=O)[C@H](Cc1c[nH]cn1)NC(=O)CCNC(=O)[C@@H](N)Cc1c[nH]c2ccccc12 [e] (H-W[βAla]HWSS-NH2) ?
Response: 13.700(3)

Query: Please report the recorded log β H2L for NCCCC[C@H](NC(=O)[C@H](Cc1c[nH]cn1)NC(=O)CCNC(=O)[C@@H](N)Cc1c[nH]c2ccccc12)C(=O)N[C@@H](CO)C(=O)N[C@@H](CO)C(N)=O [g] (H-W[βAla]HKSS-NH2) .
Response: 17.755(5)

Query: Given the compound NCC(=O)NCCC(=O)N[C@@H](Cc1c[nH]cn1)C(=O)NCC(=O)N[C@@H](CO)C(=O)N[C@@H](CO)C(N)=O [Peptide c] (H-G[βAla]HGSS-NH2) , what is its reported log β H2L?
Response: 14.266(3)

Query: GET /values?readout=log β H2L&item= NCCCC[C@H](N)C(=O)NCCC(=O)N[C@@H](Cc1c[nH]cn1)C(=O)N[C@@H](Cc1c[nH]c2ccccc12)C(=O)N[C@@H](CO)C(=O)N[C@@H](CO)C(N)=O [f] (H-K[βAla]HWSS-NH2)
Response: 17.632(4)
